tested on: IL-1 production in whole blood; assay: Inhibition of IL-1 production in LPS-stimulated whole blood ("WB"); type: cell-based, human; conditions: Homo sapiens
Known IC50 of a selection of compounds

>  <Compound>
Cc1cccc(-c2cccc(C(C(N)=O)c3c(Cl)cccc3Cl)n2)c1 (stereo not shown) [Compound 312]

>  <Result>
≥ 0.5 µM

$$$$
>  <Compound>
Cc1cc(F)ccc1-c1cccc(C(C(N)=O)c2c(Cl)cc(N)cc2Cl)n1 (stereo not shown) [Compound 364]

>  <Result>
≥ 0.5 µM

$$$$
>  <Compound>
COC(=O)CCc1ccc(SC2=NN3CNC(=O)C(c4c(Cl)cccc4Cl)=C3C=C2)cc1 [Compound 120]

>  <Result>
≥ 0.5 µM

$$$$

# context switch: different compound, same IC50
input: So what's the measured IC50 for this one? Nc1cc(F)ccc1SC1=NN2CNC(=O)C(c3c(Cl)cccc3Cl)=C2C=C1 [Compound 117]
output: 0.25 to 0.5 µM
